Each entry below carries its reported inhibition.
assay system: Botulinum neurotoxin type A (Clostridium botulinum)
assay method text: Inhibition of Clostridium botulinum BoNT/A light chain at 20 uM using P39 as substrate preincubated for 10 mins followed by substrate addition measured after 10 mins by HPLC method relative to control

compound	inhibition (%)
CC(CCN(C)CC12CC3CC(CC(C3)C1)C2)Nc1ccnc2ccccc12 (stereo not given)	51
C#Cc1ccc(-c2ccc(-c3ccc(CNCCNc4ccnc5cc(Cl)ccc45)cc3)s2)cc1	19
CC(CCCN(C)Cc1ccc(-c2csc3ccc(C#N)cc23)cc1)Nc1ccnc2ccccc12 (stereo not given)	27
CC(CCCNCc1ccc(-c2csc3ccc(F)cc23)cc1)Nc1ccnc2ccccc12 (stereo not given)	69
N#Cc1ccc(-c2ccc(-c3ccc(CNCCNc4ccnc5cc(Cl)ccc45)cc3)s2)cc1	36
CC(CCCNCc1ccc(-c2csc3ccc(C#N)cc23)cc1)Nc1ccnc2ccccc12 (stereo not given)	61
CC(=O)O[C@H]1C[C@H]2[C@@H]([C@H](OC(C)=O)C[C@@H]3C[C@H](N)CC[C@@]32C)[C@@H]2CC[C@H]([C@H](C)CCCNCCCC(C)Nc3ccnc4ccccc34)[C@@]12C (mixture of isomers)	71
N#Cc1ccc2scc(-c3ccc(CNCCCCCCNc4ccnc5ccccc45)cc3)c2c1	75
N#Cc1ccc(-c2ccc(-c3ccc(CNCCCCCCCCNc4ccnc5cc(Cl)ccc45)cc3)s2)cc1	14

---

The reader will find reported inhibition values listed item by item below.
assay system: Botulinum neurotoxin type A (Clostridium botulinum)
assay method text: Inhibition of Clostridium botulinum BoNT/A light chain at 20 uM using P39 as substrate preincubated for 10 mins followed by substrate addition measured after 10 mins by HPLC method relative to control
result type: inhibition (%)

compound structure string	obs value
CN(CCCNc1ccnc2cc(Cl)ccc12)CC12CC3CC(CC(C3)C1)C2	71
CC(=O)O[C@H]1C[C@H]2[C@@H]([C@H](OC(C)=O)C[C@@H]3C[C@H](N)CC[C@@]32C)[C@@H]2CC[C@H]([C@H](C)CCCNCCCCNc3ccnc4ccccc34)[C@@]12C	80
Fc1ccc2scc(-c3ccc(CNCCCCCCNc4ccnc5ccccc45)cc3)c2c1	56
